Test: Regeneration of drug from bone powder-bound prodrug
Assay type: in vitro ADME
Details: 50% Rat Serum; 24 h incubation, 37° C.
Observed property: % Conversion of bone-bound prodrug to parent drug (%)
Give a bare numeral; the unit % is implied.

I'd like to know its % Conversion of bone-bound prodrug to parent drug. The compound in question is CCN(CC)CC.CCN(CC)CC.CO[C@H]1/C=C/O[C@@]2(C)Oc3c(C)c(O)c4c(=O)c(c5oc6cc(N7CCN(CC(C)C)CC7)cc(O)c6nc-5c4c3C2=O)NC(=O)/C(C)=C\C=C\[C@H](C)[C@H](OC(=O)CCC(=O)NCCC(=O)NC(P(=O)(O)O)P(=O)(O)O)[C@@H](C)[C@@H](O)[C@@H](C)[C@H](OC(C)=O)[C@@H]1C [Compound 78]
0.01
